Source: ChEMBL document CHEMBL5058577

Known Population Apoptotic (%) of a selection of molecules
Test system: HEK-293T
Assay: Multiplex assay against HEK293T
Format: toxicity, cell-based
Settings: human, 24 h, 1 µM, compound concentration 1 uM, replicate 1
Express your answer in %, writing the number without its unit.

Below are worked cases with known answers.
Cc1sc2c(c1C)C(c1ccc(Cl)cc1)=N[C@@H](CC(=O)NCCCCCCCCNC(=O)COc1cccc3c1C(=O)N(C1CCC(=O)NC1=O)C3=O)c1nnc(C)n1-2 (stereo not given in full); 51
O=C1[C@H](Cc2ccc(O)cc2)N2C(=O)CCN(C(=O)NCc3ccccc3)[C@H]2CN1Cc1cccc2ccccc12; 23
CCc1cc2cc(NS(=O)(=O)c3ccc(C#N)cc3)ccc2n(CC)c1=O; 29
CCCCCC(O)/C=C/[C@H]1C(=O)CC(O)C1C/C=C\CCCC(=O)O (stereo not given in full); 40

Task: What does the data say about its Population Apoptotic (%)? Entry: `Cc1cccc(NC(=O)CN2CCC(c3ccccn3)CC2)c1.Cl.Cl`
Result: 32

###

Tested on: U2OS
Experiment: Multiplex assay against U2OS
Format: toxicity, cell-based
Conditions: human, 24 h, 1 µM, compound concentration 1 uM, replicate 2
readout label: Population Apoptotic (%)
Express your answer in %, writing the number without its unit.

Cc1c(CC(=O)O)c2cccnc2n1Cc1ccc(S(C)(=O)=O)cc1C(F)(F)F [FEVIPIPRANT]; 66

Task: What does the data say about its Population Apoptotic (%)? Entry: `Cc1noc(-c2ccc(-c3ccc(CC(=O)O)cc3)cc2)c1NC(=O)O[C@H](C)c1ccccc1Cl`
Result: 77

Task: What does the data say about its Population Apoptotic (%)? Entry: CC(C)c1noc(N2CCC(COc3ccc(-c4ccc(S(C)(=O)=O)cc4)nc3)CC2)n1 [GSK-1292263]
Result: 66

###

Known Population Normal (%) of a selection of compounds
Tested on: U2OS
Test: Multiplex assay against U2OS
Assay type: toxicity, cell-based
Conditions: human, 24 h, 10 µM, compound concentration 10 uM, replicate 1
Express your answer in %, writing the number without its unit.

Below are worked cases with known answers.
N#Cc1cc(F)cc(-c2nc(-c3ccc(F)cn3)no2)c1; 98
Br.CS(=O)(=O)Nc1c(O)ccc2c1CCCC2C1=NCCN1 (stereo unspecified); 97
N#Cc1c(Oc2cccc(OS(=O)(=O)CCCC(F)(F)F)c2)cccc1C(F)(F)F; 93
Cl.NCCc1ccc(O)c(O)c1 [DOPAMINE HYDROCHLORIDE]; 97
COC[C@@H](c1ccc(C(F)(F)F)cc1)N1CCN(C2(C)CCN(C(=O)c3c(C)ncnc3C)CC2)C[C@@H]1C.O=C(O)/C=C\C(=O)O [VICRIVIROC MALEATE]; 98

Now look at this entry.
Task: What does the data say about its Population Normal (%)? Entry: `CN(C)C(=O)Cn1cc(-c2ccc(-c3cncc4ccccc34)cc2)cn1`
Result: 96

###

Tested on: U2OS
Assay: Multiplex assay against U2OS
Assay type: toxicity, cell-based
Conditions: human, 24 h, 10 µM, compound concentration 10 uM, replicate 1
Lab note: class by Population Apoptotic (%), see lo: < 80%; mid: ≥ 80% and < 90%; hi: ≥ 90%

See these solved cases before continuing.
Cc1c(CC(=O)O)c2cccnc2n1Cc1ccc(S(C)(=O)=O)cc1C(F)(F)F [FEVIPIPRANT]; hi
Cl.N=C(N)NC(=O)Cc1c(Cl)cccc1Cl [GUANFACINE HYDROCHLORIDE]; mid

Task: Class? Entry: `N#Cc1c(Oc2cccc(OS(=O)(=O)CCCC(F)(F)F)c2)cccc1C(F)(F)F`
Result: lo

Task: Class? Entry: Br.CS(=O)(=O)Nc1c(O)ccc2c1CCCC2C1=NCCN1 (stereo not given)
Result: mid

Task: Class? Entry: Cc1sc2c(c1C)C(c1ccc(Cl)cc1)=N[C@@H](CC(=O)NCCCCCCCCNC(=O)COc1cccc3c1C(=O)N(C1CCC(=O)NC1=O)C3=O)c1nnc(C)n1-2 (stereo not given in full)
Result: hi

Task: Class? Entry: O=C(NCCN1CCC(n2c(=O)[nH]c3cc(Cl)ccc32)CC1)c1ccc(F)cc1 [HALOPEMIDE]
Result: lo

Task: Class? Entry: CCCCC1=NC2(CCCC2)C(=O)N1Cc1ccc(-c2ccccc2-c2nnn[nH]2)cc1 [IRBESARTAN]
Result: hi

Task: Class? Entry: `NCCc1cn(S(=O)(=O)c2c(Cl)nc3sccn23)c2ccccc12.O=C(O)C(=O)O`
Result: mid

Task: Class? Entry: CC(C)(C)c1cc(NC(=O)Nc2ccc(-c3cn4c(n3)sc3cc(OCCN5CCOCC5)ccc34)cc2)no1 [QUIZARTINIB]
Result: lo

Task: Class? Entry: `O=C(CCCc1ccccc1)Nc1nc2ccccc2c(=O)s1`
Result: mid

Task: Class? Entry: `COc1ccccc1N1CCN(C[C@@H](C(=O)NC(C)(C)C)c2ccccc2)CC1.Cl.Cl`
Result: lo

Task: Class? Entry: `Cc1onc(-c2ccccc2Cl)c1C(=O)N(C)c1ccc(Cl)cc1`
Result: lo
